Biological target: human CB1 receptor (Homo sapiens, UniProt P21554)
Sequence (P21554 whole entry): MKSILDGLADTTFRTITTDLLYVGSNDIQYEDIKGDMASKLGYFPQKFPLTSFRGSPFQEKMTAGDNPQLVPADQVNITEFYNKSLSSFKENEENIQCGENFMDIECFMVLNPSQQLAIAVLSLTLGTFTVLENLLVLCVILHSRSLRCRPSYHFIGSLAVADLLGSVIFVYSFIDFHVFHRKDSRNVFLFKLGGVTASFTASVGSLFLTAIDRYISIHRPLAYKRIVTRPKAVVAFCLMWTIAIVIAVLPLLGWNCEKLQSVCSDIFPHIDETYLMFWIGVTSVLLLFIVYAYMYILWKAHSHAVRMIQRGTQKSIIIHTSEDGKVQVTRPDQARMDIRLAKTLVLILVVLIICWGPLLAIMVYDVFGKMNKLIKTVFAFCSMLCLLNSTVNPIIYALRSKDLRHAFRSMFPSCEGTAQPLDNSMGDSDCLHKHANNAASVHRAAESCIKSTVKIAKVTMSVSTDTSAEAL
Assay: [35S] GTPγS binding on membranes of CHO cells expressing the human CB1 receptor (agonism)
Type: biochemical
Set-up: expressed in transfected cells; membrane preparation
Conditions: GTPγS EC50, human CB1, CHO cell membranes
Property Measured: EC50 (nM)
Only the number, expressed in nM, is required.

• CC(C)(C)[C@H](NC(=O)c1nn(Cc2ccc(C(F)(F)F)cc2)c2ccccc12)C(=O)NCCO [Example 255] = 130
• CC(C)(C)[C@H](NC(=O)c1nn(Cc2ccc(C#N)cc2)c2c(F)cccc12)C(=O)N[C@@H]1CNC(=O)C1 [Example 457] = 108
• CC(C)(C)[C@H](NC(=O)c1nn(Cc2ccc(F)cc2)c2c(F)c(F)ccc12)C(=O)NCCS(C)(=O)=O [Example 326] = 53.2
• CC(C)(C)[C@H](NC(=O)c1nn(Cc2ccc(F)cc2)c2ccccc12)C(=O)N1CCC(F)(F)C1 [Example 331] = 9.9
• CC(C)(C)C(NC(=O)c1nn(Cc2ccccc2)c2ccccc12)C(=O)NCCNC(N)=O (stereo not shown) [Example 83] = 720

q: Given CC(C)(C)[C@H](NC(=O)c1nn(Cc2ccc(C#N)cc2)c2c(F)cccc12)C(=O)NCCO [Example 10] , state its recorded EC50.
a: 37.5

q: Given CC(C)(C)[C@H](NC(=O)c1nn(Cc2ccc(C#N)cc2)c2c(F)cccc12)C(=O)NC1CC1 [Example 108] , state its recorded EC50.
a: 27

* * *

Overview of reported pEC50 across a group of compounds:
Target: human CB1 receptor (Homo sapiens, UniProt P21554)
Assay: [35S] GTPγS binding on membranes of CHO cells expressing the human CB1 receptor (agonism)
Type: biochemical
Design: expressed in transfected cells; membrane preparation
Conditions: GTPγS EC50, human CB1, CHO cell membranes
Interpret pEC50 as the negative base-10 log of the concentration measured in mol/L.

Consider the worked cases shown below.
- CC(C)(C)[C@H](NC(=O)c1nn(Cc2ccc(F)cc2)c2ccccc12)C(=O)N1CCOC(CO)C1 (stereo partly drawn): 7.79
- CC(C)(C)[C@H](NC(=O)c1nn(Cc2ccc(C#N)cc2)c2c(F)cccc12)C(=O)N1CC(O)C1: 7.63
- CC(C)(C)[C@H](NC(=O)c1nn(Cc2ccc(F)cc2)c2ccccc12)C(=O)N1CC(F)C1: 9.28

q: Given CC(C)(C)C(NC(=O)c1nn(Cc2ccc(F)cc2)c2ccc(F)cc12)C(=O)NC1CC1 (stereo not drawn) , state its recorded pEC50.
a: 9.36

* * *

Biological target: human CB1 receptor (Homo sapiens, UniProt P21554)
Test: Human CB1 receptor binding, [3H] CP-55,940 displacement on HEK cell membranes
Set-up: expressed in transfected cells; host or cells: HEK cells, doxycycline-induced; membrane preparation
Conditions: CB1 Ki
Property Measured: Ki (nM)
Only the number, expressed in nM, is required.

Consider the worked cases shown below.
- CC(C)(C)[C@H](NC(=O)c1nn(Cc2ccc(C#N)cc2F)c2c(F)cccc12)C(=O)NCCS(N)(=O)=O: 54.8
- CC(C)(C)[C@H](NC(=O)c1nn(Cc2ccc(C#N)cc2)c2cc(F)ccc12)C(=O)N[C@H]1C[C@H](O)C1: 32.6

q: Query Ki on human CB1 receptor (Homo sapiens, UniProt P21554) for CC(C)(C)[C@H](NC(=O)c1nn(Cc2ccc(F)cc2)c2ccc(Cl)cc12)C(=O)NCCO
a: 0.89

q: Query Ki on human CB1 receptor (Homo sapiens, UniProt P21554) for CC(C)(C)[C@H](NC(=O)c1nn(Cc2ccc(F)cc2)c2ccccc12)C(=O)NCC(=N)N
a: 1.2

q: Query Ki on human CB1 receptor (Homo sapiens, UniProt P21554) for CC(C)(C)[C@H](NC(=O)c1nn(Cc2ccc(C#N)cc2)c2c(F)cccc12)C(=O)NCCO
a: 1.91

q: Query Ki on human CB1 receptor (Homo sapiens, UniProt P21554) for CC(C)(C)C(NC(=O)c1nn(Cc2ccc(F)cc2)c2c(Cl)cccc12)C(=O)NCCCO (stereo not shown)
a: 0.37

* * *

Target: human CB1 receptor (Homo sapiens)
Assay: Human CB1 receptor binding, [3H] CP-55,940 displacement on HEK cell membranes
Set-up: expressed in transfected cells; host or cells: HEK cells, doxycycline-induced; membrane preparation
Conditions: CB1 Ki
Procedure: The Human CB1 receptor binding affinity and other biological activities of the compounds of this invention are determined by the following procedures. […] Protein concentration was determined using the Micro-BCA Protein Assay Kit (Pierce, Rockford, Ill.) using BSA as a standard. […] Binding experiments: 50 μl of test compound was incubated with 50 μl of [^3H] […] Nonspecific binding was determined by incubation with 50 μM WIN-55, 212-2 (Tocris, Ellisville, Mo.). […]
Property Measured: log10 Ki (log10 of the value in nM)
Note: values are log10 of Ki expressed in nM.

q: Given CC(C)(C)[C@H](NC(=O)c1nn(Cc2ccc(F)cc2)c2ccccc12)C(=O)N1CCCC(O)C1 (stereo partly drawn) , state its recorded log10 Ki.
a: -0.29

* * *

Target: human CB1 receptor (Homo sapiens, UniProt P21554)
Test: [35S] GTPγS binding on membranes of CHO cells expressing the human CB1 receptor (agonism)
Format: biochemical
Parameters: expressed in transfected cells; membrane preparation
Settings: human CB1, CHO cell membranes, read-out: GTPγS EC50
Procedure: Membrane preparation: CHO cells expressing the human CB1 receptor were grown to 80% confluence in Ham's F-12 Nutrient Medium (Invitrogen) containing 10% fetal bovine serum (Invitrogen), 1% pen/strep (Invitogen), 1% Nonessential amino acids (Invitrogen) and 500 μg/ml G418 (Invitrogen). Cells were released from flasks using Cell Dissociation Buffer (Invitrogen). […] Protein concentration was determined using the Micro-BCA Protein Assay Kit (Pierce) using BSA as a standard. […]
Property Measured: pEC50
Interpret pEC50 as the negative base-10 log of the concentration measured in mol/L.

Consider the worked cases shown below.
* CN1CC(CNC(=O)[C@@H](NC(=O)c2nn(Cc3ccc(F)cc3)c3ccccc23)C(C)(C)C)CC1=O (stereo partly shown) | 7.67
* CC(C)(C)[C@H](NC(=O)c1nn(Cc2ccccc2)c2cc(-c3cccnc3)ccc12)C(N)=O | 7.67
* CC(C)(C)[C@H](NC(=O)c1nn(Cc2ccc(F)cc2)c2ccccc12)C(=O)N1CC(CNC(N)=O)C1 | 7.92
* CC(C)(C)[C@H](NC(=O)c1nn(Cc2ccc(C#N)cc2)c2c(F)cccc12)c1nnc(N)o1 | 7.50
* CC(C)(C)[C@H](NC(=O)c1nn(Cc2ccc(F)cc2)c2ccccc12)C(=O)NCCc1cnccn1 | 7.65

q: Given CC(C)(C)[C@H](NC(=O)c1nn(Cc2ccc(F)cc2)c2ccccc12)C(=O)NCC(=O)Nc1cnoc1 , state its recorded pEC50.
a: 7.87

q: Given CC(C)(C)[C@H](NC(=O)c1nn(Cc2ccc(F)cc2)c2ccccc12)C(=O)NCc1nnc(C(=O)NCCO)o1 , state its recorded pEC50.
a: 7.89

* * *

Target: UniProt:P21554
Assay: [35S] GTPγS binding on membranes of CHO cells expressing the human CB1 receptor (agonism)
Type: biochemical
Set-up: expressed in transfected cells; membrane preparation
Details: human CB1, CHO cell membranes, read-out: GTPγS EC50
Property Measured: log10 of EC50 (log10 of the value in nM)
Note: values are log10 of EC50 expressed in nM.

Consider the worked cases shown below.
- CC(C)(C)[C@H](NC(=O)c1nn(Cc2ccc(F)cc2)c2ccccc12)C(=O)N1CC(CNS(=O)(=O)C2CC2)C1: 0.23
- CC(C)(C)C(NC(=O)c1nn(Cc2ccccc2)c2ccccc12)C(=O)NCCNS(=O)(=O)C1CC1 (centres unmarked): 1.23
- CC(C)(C)[C@H](NC(=O)c1nn(Cc2ccc(F)cc2)c2ccccc12)C(=O)N1CCC(C(N)=O)CC1: 1.43
- CC(C)(C)[C@H](NC(=O)c1nn(Cc2ccc(F)cc2)c2ccccc12)C(=O)NCc1cc(C2CC2)[nH]n1: 1.29
- CC(C)(C)[C@H](NC(=O)c1nn(Cc2ccc(C#N)cc2)c2c(F)cccc12)C(=O)N1Cc2ccccc2C1: 1.76
- CCNC(=O)OC1CCN(C(=O)[C@@H](NC(=O)c2nn(Cc3ccc(F)cc3)c3ccccc23)C(C)(C)C)CC1: 1.04

q: Given CC(C)(C)[C@H](NC(=O)c1nn(Cc2ccc(F)cc2)c2ccccc12)C(=O)NCC(=O)NC[C@@H](O)CO , state its recorded log10 of EC50.
a: 0.45

q: Given CC(C)(C)[C@H](NC(=O)c1nn(Cc2ccc(F)cc2)c2ccccc12)C(=O)N1CCN(S(=O)(=O)C2CC2)CC1 , state its recorded log10 of EC50.
a: 1.09

q: Given CC(C)(C)C(NC(=O)c1nn(Cc2ccc(F)cc2)c2ccccc12)C(=O)NCCN1CCOCC1 (centres unmarked) , state its recorded log10 of EC50.
a: 1.61

q: Given Cc1cc2c(C(=O)N[C@H](C(=O)NCc3nnc(C(N)=O)o3)C(C)(C)C)nn(Cc3ccc(F)cc3)c2cc1F , state its recorded log10 of EC50.
a: 1.21

q: Given CC(=O)N1CCC(NC(=O)[C@@H](NC(=O)c2nn(Cc3ccc(F)cc3)c3ccccc23)C(C)(C)C)C1 (some centres unmarked) , state its recorded log10 of EC50.
a: 1.80
